// molecules with reported pKi on Nitric oxide synthase 1 (Homo sapiens), multi-publication
Sequence (P29475 whole entry): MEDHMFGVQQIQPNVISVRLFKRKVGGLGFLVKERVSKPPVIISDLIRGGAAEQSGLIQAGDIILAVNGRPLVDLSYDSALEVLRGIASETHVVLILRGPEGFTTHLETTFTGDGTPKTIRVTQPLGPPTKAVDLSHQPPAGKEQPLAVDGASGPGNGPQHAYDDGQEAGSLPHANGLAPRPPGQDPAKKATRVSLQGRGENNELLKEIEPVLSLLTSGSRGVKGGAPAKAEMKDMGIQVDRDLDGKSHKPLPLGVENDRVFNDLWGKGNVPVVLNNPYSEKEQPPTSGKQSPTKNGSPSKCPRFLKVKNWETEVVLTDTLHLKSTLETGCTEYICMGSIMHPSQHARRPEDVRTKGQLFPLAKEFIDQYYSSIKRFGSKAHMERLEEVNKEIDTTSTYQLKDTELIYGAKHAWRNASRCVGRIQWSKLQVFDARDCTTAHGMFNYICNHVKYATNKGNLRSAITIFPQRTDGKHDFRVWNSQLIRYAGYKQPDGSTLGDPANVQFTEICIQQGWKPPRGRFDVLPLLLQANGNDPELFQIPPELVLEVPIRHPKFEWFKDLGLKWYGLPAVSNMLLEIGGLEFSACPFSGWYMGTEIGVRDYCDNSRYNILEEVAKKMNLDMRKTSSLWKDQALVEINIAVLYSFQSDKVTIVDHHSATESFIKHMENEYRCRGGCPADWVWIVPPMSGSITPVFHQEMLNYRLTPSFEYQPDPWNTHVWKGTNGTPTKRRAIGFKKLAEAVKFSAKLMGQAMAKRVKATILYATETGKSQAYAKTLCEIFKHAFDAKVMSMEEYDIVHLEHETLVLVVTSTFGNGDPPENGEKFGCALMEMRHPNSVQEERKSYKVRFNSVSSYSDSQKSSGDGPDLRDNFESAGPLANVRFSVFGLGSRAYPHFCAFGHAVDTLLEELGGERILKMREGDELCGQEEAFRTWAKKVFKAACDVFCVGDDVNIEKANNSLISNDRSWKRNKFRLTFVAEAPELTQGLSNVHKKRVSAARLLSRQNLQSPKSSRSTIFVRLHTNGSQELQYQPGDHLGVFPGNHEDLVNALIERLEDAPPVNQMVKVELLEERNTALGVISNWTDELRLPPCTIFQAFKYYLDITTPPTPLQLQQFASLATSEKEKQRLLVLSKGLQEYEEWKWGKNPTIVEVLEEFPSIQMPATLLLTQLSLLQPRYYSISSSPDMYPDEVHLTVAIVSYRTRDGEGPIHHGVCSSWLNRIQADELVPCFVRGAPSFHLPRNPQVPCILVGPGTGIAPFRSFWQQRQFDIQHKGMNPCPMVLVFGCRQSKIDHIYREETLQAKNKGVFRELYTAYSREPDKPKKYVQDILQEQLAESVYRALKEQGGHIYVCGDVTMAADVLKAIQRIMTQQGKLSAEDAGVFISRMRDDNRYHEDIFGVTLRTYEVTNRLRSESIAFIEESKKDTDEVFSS
pKi: −log10 of the molar value.
Tick criterion met if pKi is 6 or greater. Tick criterion not met if pKi is less than 6.

Here's what some known entries look like.
{"molecule": "c1ccc(-c2ccc(CCn3ccnc3)cc2)cc1", "assignedCategory": "criterion not met"}
{"molecule": "CCSC(=N)Nc1ccc(Cl)cc1", "assignedCategory": "criterion met"}
{"molecule": "NCCCC/N=C(\\N)n1cccn1", "assignedCategory": "criterion not met"}

## Task Dear colleague, could you confirm whether `CCCC(=N)NCCC[C@H](N)C(=O)O` has pKi at or above 6?
## Result criterion not met

## Task Dear colleague, could you confirm whether `N[C@@H](CCCCCc1cnc[nH]1)C(=O)O` has pKi at or above 6?
## Result criterion not met

## Task Dear colleague, could you confirm whether `Nc1cccc(C[C@H]2CNC[C@H]2OCCNCCc2cccc(F)c2)n1` has pKi at or above 6?
## Result criterion not met

## Task Dear colleague, could you confirm whether `N=C(N)SCCc1cccc(CCSC(=N)N)c1` has pKi at or above 6?
## Result criterion met

## Task Dear colleague, could you confirm whether `CC(=N)Nc1cccc(N)c1` has pKi at or above 6?
## Result criterion not met

## Task Dear colleague, could you confirm whether `CC(C)(C)SC(=N)N` has pKi at or above 6?
## Result criterion met

## Task Dear colleague, could you confirm whether `FC(F)(F)c1ccc(OCCn2ccnc2)cc1` has pKi at or above 6?
## Result criterion not met

## Task Dear colleague, could you confirm whether `Brc1cccc(OCCCCn2ccnc2)c1` has pKi at or above 6?
## Result criterion not met

## Task Dear colleague, could you confirm whether NC1=NC(C[C@@H]2CNC[C@@H]2OCCNCCc2cccc(F)c2)CCC1 (stereo partly drawn) has pKi at or above 6?
## Result criterion met

## Task Dear colleague, could you confirm whether `Nc1cccc(C[C@@H]2CNC[C@@H]2OCCNCCc2cccc(F)c2)n1` has pKi at or above 6?
## Result criterion met
